Test system: VISA HIP07256 (NRS19)
Assay: MIC/MBC broth microdilution, NRS19 (VISA HIP07256)
Type: cell-based
Settings: Staphylococcus aureus; Table 8; NRS19 (VISA); read-out: MIC
Reported MIC values for the following molecules.

structure notation	limit sign	MIC [µM]
CC(=O)c1sc(-c2ccc(-c3cccc4ccccc34)cc2)nc1C	>	128
CC(=O)c1sc(-c2ccc(-c3ccc(C(F)(F)F)cc3)cc2)nc1C	>	128
CC(=O)c1ccc(-c2ccc(-c3nc(C)c(C(C)=O)s3)cc2)cc1	>	128
CC(=O)c1ccc(-c2ccc(-c3nc(C)c(/C(C)=N\NC(=N)N)s3)cc2)cc1	=	32
CCCCc1ccc(-c2nc(C)c(/C(N)=N\O)s2)cc1	>	128
C/C(=N/NC(=N)N)c1sc(-c2ccc(-c3ccc(C(F)(F)F)cc3)cc2)nc1C	=	8
C/C(=N\NC(=N)N)c1sc(-c2ccc(N)cc2)nc1C	=	128
CCCCC#Cc1ccc(-c2nc(C)c(/C(C)=N/NC(=N)N)s2)cc1	=	4
CCCCc1ccc(-c2nc(C)c(/C(C)=N/NC(=N)N)s2)cc1	=	4
